# measured-target: S1PR2 (Homo sapiens, UniProt O95136)
# Sequence (O95136 whole entry): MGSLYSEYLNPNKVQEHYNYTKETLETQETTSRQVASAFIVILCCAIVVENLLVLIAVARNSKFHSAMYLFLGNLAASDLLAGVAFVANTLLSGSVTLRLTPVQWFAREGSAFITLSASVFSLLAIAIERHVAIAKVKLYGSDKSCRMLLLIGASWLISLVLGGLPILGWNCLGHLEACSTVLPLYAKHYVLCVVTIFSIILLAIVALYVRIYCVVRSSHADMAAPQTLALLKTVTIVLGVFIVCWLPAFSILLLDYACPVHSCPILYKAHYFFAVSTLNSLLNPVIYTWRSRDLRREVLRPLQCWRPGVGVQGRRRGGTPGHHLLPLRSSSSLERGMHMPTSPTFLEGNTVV
# test: GTP-γS binding assay ([35S]GTPγS, S1P at EC80, S1PR2 membranes)
# assay-conditions: membranes from stable cell line over expressing S1PR2, read-out: S1PR2 EC
quantity-measured: EC50 (nM)

Worked examples follow.
molecule	EC50, nM
Cc1cc(CNC(=O)Nc2cc(OC3CCOC3)nc(C(F)(F)F)c2)nnc1-c1cn(C)nc1C(F)(F)F (stereo not drawn)	770
CCOc1cc(N[14C](=O)NCc2cc(C)c(-c3cn(C)nc3C(F)(F)F)nn2)cc(C(F)(F)F)n1	16300
Cn1cc(-c2nnc(CNC(=O)Nc3cc(Cl)nc(OCC(F)F)c3)cc2N2CCOCC2)c(C(F)(F)F)n1	2370

A = Cc1cc(CNC(=O)Nc2cnc(OCC(F)(F)F)c(C(F)(F)F)c2)nnc1-c1cn(C)nc1C(F)(F)F
B = CN(C)Cc1cc(CNC(=O)Nc2cc(Cl)nc(OCC(F)F)c2)nnc1-c1cn(C)nc1C(F)(F)F
C = CCOc1cc(NC(=O)NCc2cc(C)c(-c3cn(C)nc3C3CC3)nn2)cc(C(F)(F)F)n1
D = CCOc1cc(NC(=O)NCc2cc(C)c(-c3cn(CC4COCCO4)nc3C(F)(F)F)nn2)cc(C(F)(F)F)n1 (stereo not drawn)
Input line: Rank order required: EC50, descending. Field: ranking. Enter the labels in the order requested.
Output line: B, A, D, C

a = Cc1cc(CNC(=O)Nc2cc(Cl)nc(Cl)c2)nnc1-c1cn(C)nc1C(F)(F)F
b = COCC(C)Oc1cc(NC(=O)NCc2cc(C)c(-c3cn(C)nc3C(F)(F)F)nn2)cc(C(F)(F)F)n1 (stereo not drawn)
c = CCOc1cc(NC(=O)NCc2cc(C)c(-c3cn(C)nc3C(F)(F)F)nn2)cc(C2CC2)n1
Input line: Hey, quick one: sort these by EC50, low to high? When ranking, write the labels in the order the request describes.
Output line: c, a, b
(c: 86 nM, a: 136 nM, b: 542 nM)
